experiment: Log P by HPLC on reversed phase columns (EEC directive 79/831 Annex V.A8; methods [a], [b], [c]); assay type: physicochemical
Readout Label: LogP

Worked set:
| Molecule | LogP |
| --- | --- |
| N#Cc1cncn1CC(O)(CC1CC1)c1cc(F)c(Cl)c(F)c1 (stereo not shown) | 2.73^[a] |
| CC(O)(Cn1cncc1Cl)c1ccc(Oc2ccc(I)cc2)cc1Br (stereo not shown) | 3.25^[a] |
| CC1(C(O)(Cn2cncc2C#N)c2ccc(F)cc2F)CC1 (stereo not shown) | 2.37^[a] |
| N#Cc1cncn1CC(O)(c1cc(Br)ccc1F)C1(F)CC1 (stereo not shown) | 2.31^[a] |
| N#Cc1cncn1CC(O)(c1cc(F)c(F)cc1F)C1(F)CC1 (stereo not shown) | 2.18^[a] |
| N#Cc1cncn1CC(O)(c1cc(F)c(F)c(F)c1)C1(F)CC1 (stereo not shown) | 2.34^[a] |

Record request: LogP value, item CC(C)(C)C(O)(Cn1cncc1C#N)c1cc(F)c(Cl)c(F)c1 (stereo not shown)
3.01^[a]

// lookup LogP for N#Cc1cncn1CC(O)(c1ccc(/C=C/C2CC2)cc1Cl)C1(Cl)CC1 (stereo not shown)
3.37^[a]

I am curious: what LogP value has been reported for CC(C)(C)CC(O)(Cn1cncc1C#N)c1ccc2occc2c1 (stereo not shown) ?
2.88^[a]

Value lookup for LogP; key = CC(O)(Cn1cncc1Cl)c1ccc(Oc2ccc(Br)cc2)cc1Br (stereo not shown)
3.06^[a]

* * *

assay: Log P by HPLC on reversed phase columns (EEC directive 79/831 Annex V.A8; methods [a], [b], [c]); format: physicochemical
In this section we review reported LogP values for a set of compounds.

| Compound | LogP |
| --- | --- |
| CC(O)(Cn1cncc1Cl)c1cnc(Oc2ccc(Cl)cc2)cc1Cl (centres unmarked) | 2.41^[a] |
| CC(C)(C)c1ccc(C(O)(Cn2cncc2C#N)C2(Cl)CC2)c(Cl)c1 (centres unmarked) | 3.39^[a] |

Param item = N#Cc1cncn1CC(O)(c1ccc(F)cc1F)C1CCC1 (centres unmarked) ; retrieve measured LogP.
2.53^[a]

I would be grateful if you could share the reported LogP for N#Cc1cncn1CC(O)(CC1CC1)c1cc(F)c(F)c(F)c1 (centres unmarked) .
2.51^[a]

Reported LogP, compound N#Cc1cncn1CC(O)(c1cc(F)c(Br)cc1Cl)C1(F)CC1 (centres unmarked) : ____
2.63^[a]

* * *

assay: Log P by HPLC on reversed phase columns (EEC directive 79/831 Annex V.A8; methods [a], [b], [c]); type: physicochemical
Readout Label: LogP

| Molecule | LogP |
| --- | --- |
| CC(O)(Cn1cncc1Cl)c1ccc(Oc2ccc(Cl)nc2)cc1Cl (stereo not shown) | 2.13^[a] |
| N#Cc1cncn1CC(O)(CC1CC1)c1cc(Cl)c(Cl)c(Cl)c1 (stereo not shown) | 3.22^[a] |
| N#Cc1cncn1CC(O)(C#CCC1CCCCC1)C1CCC1 (stereo not shown) | 3.51^[a] |

Moving on to another molecule below.
Requested field: LogP. Item: CC(O)(Cn1cncc1C#N)c1cnc(Oc2ccc(C(F)(F)F)cc2)cc1C(F)(F)F (stereo not shown) [I-251]
3.51^[a]
